Target: Serine/threonine-protein kinase PLK1 (Homo sapiens)
Sequence (P53350 whole entry): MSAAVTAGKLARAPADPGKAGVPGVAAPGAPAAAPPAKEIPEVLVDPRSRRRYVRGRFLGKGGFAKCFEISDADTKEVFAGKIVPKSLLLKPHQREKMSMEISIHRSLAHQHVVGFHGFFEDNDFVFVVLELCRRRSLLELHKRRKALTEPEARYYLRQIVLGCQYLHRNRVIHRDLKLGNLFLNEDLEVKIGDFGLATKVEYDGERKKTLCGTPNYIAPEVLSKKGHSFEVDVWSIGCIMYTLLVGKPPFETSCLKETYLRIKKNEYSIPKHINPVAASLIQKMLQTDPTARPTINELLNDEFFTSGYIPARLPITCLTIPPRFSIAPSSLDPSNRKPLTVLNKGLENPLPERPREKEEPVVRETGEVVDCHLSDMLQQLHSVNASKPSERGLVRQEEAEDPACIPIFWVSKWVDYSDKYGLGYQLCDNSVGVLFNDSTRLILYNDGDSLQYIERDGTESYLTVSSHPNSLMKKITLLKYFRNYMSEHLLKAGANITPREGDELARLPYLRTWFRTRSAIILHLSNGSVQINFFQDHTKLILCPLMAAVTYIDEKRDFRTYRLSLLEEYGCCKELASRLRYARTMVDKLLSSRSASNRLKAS
metric.name: pIC50
Answers are plain numbers, as −log10 of the molar value.

| smiles.representation | observed.result |
| --- | --- |
| CCc1ccsc1-c1cnc(N)c(N2CCC(C(=O)O)CC2)n1 | 5.07 |

Proceeding to the next molecule to report its pIC50.
Query :: Return the recorded pIC50 value; entry: COc1cc(-c2cnc(N)c(N3CCC(C(=O)O)CC3)n2)cc(OC)c1OC
Result :: 4.65

----------
Biological target: Serine/threonine-protein kinase Nek2 (Homo sapiens)
Sequence (P51955 whole entry): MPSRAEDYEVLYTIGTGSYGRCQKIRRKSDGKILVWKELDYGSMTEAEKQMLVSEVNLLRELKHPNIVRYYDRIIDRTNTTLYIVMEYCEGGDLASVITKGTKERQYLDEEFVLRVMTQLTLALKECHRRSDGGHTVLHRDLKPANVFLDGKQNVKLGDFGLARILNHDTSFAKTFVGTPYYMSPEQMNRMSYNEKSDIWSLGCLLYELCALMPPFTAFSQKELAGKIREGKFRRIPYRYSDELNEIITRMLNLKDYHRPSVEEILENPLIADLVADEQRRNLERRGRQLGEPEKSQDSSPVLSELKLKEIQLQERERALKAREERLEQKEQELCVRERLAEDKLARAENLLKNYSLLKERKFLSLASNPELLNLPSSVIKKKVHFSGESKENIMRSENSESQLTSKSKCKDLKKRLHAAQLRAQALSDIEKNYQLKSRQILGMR
What pIC50 was measured for each of the following?
Answers are plain numbers, as −log10 of the molar value.

| smiles.representation | observed.result |
| --- | --- |
| CCc1ccsc1-c1cnc(N)c(N2CCC(C(=O)O)CC2)n1 | 5.72 |

Proceeding to the next molecule to report its pIC50.
Query :: Return the recorded pIC50 value; entry: COc1cc(-c2cnc(N)c(-c3ccc(C(=O)O)cc3)n2)cc(OC)c1OC
Result :: 5.80

----------
Target: Serine/threonine-protein kinase Chk1 (Homo sapiens, UniProt O14757)
Sequence (O14757 whole entry): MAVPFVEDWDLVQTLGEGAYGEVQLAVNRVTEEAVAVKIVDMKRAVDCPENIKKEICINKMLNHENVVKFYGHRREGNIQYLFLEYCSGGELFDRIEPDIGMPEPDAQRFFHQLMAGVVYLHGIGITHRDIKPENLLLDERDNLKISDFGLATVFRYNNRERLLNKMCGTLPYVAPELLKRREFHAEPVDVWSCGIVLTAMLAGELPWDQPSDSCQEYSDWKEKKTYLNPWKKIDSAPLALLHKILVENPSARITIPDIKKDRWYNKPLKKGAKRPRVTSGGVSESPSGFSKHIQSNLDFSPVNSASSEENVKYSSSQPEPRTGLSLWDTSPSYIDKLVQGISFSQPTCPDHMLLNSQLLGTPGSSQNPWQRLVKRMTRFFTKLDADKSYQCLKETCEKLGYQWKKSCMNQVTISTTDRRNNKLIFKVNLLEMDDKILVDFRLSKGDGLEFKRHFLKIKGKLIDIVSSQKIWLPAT
pIC50: −log10 of the molar value.
metric.name: pIC50

Query :: Return the recorded pIC50 value; entry: COc1cc(-c2cnc(N)c(N3CCC(C(=O)O)CC3)n2)cc(OC)c1OC
Result :: < 4.00

----------
Serine/threonine-protein kinase Nek2 (Homo sapiens): recorded log10(IC50) for assorted molecules
Please interpret these as log10 of IC50 where IC50 is in µM.

For every item below, please supply its log10(IC50).
1. Nc1ncc(-c2ccsc2)nc1N1CCC(C(=O)O)CC1
2. COc1cc(-c2cnc(N)c(N3CC[C@H](C(=O)O)[C@H](C)C3)n2)cc(OC)c1OC
3. COC(=O)C1CCN(c2nc(-c3cc(OC)c(OC)c(OC)c3)cnc2N)CC1
4. COc1cc(-c2cnc(N)c(N3CC[C@@H](C(=O)O)[C@@H](C)C3)n2)cc(OC)c1OC
5. CC[C@H]1CN(c2nc(-c3cc(OC)c(OC)c(OC)c3)cnc2N)CC[C@@H]1C(=O)O (racemic)
6. COc1ccc(-c2cnc(N)c(N3CCC(C(=O)O)CC3)n2)cc1

Result ::
1: 0.86; 2: 1.03; 3: 1.26; 4: -0.41; 5: 1.05; 6: 1.30
